# studySystem: Aurora kinase A (Homo sapiens) (UniProt O14965)
# Sequence (O14965 whole entry): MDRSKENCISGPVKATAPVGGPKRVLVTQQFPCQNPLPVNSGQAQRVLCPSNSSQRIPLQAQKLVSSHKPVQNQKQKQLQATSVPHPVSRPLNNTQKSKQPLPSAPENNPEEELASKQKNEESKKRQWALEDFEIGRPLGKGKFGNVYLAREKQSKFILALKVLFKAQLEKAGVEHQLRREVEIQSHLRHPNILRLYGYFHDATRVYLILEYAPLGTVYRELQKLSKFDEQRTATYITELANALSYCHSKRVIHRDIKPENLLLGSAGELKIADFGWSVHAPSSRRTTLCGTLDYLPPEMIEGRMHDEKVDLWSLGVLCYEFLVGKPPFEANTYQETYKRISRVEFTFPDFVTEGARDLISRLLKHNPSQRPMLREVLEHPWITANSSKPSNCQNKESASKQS
# assaySetup: Compound concentration 20.0 uM
# Description: Thermal Shift Assay. Domain: start/stop: E122-S403
Residues, ends and D or L forms follow the SMILES beside them. *: point of attachment. Cbz = O=C(OCc1ccccc1)*; CH2F = FC*
valueType: ΔTm (°C)
Numbers only; they are read as °C.

Would you please look over these solved cases?
N#Cc1ccc(-c2c3n(c4cccnc24)CCN(C2CC2)C3=O)cc1F : -2.3
COC(=O)CC(NC(=O)C(C)NC(=O)C(NC(=O)C(CC(=O)OC)NC(=O)C(NC(=O)OCc1ccccc1)C(C)C)C(C)C)C(=O)CF (stereo not given) (Cbz-VD(OMe)VAD(OMe)-CH2F; configuration not given here) : -1.87
CC(C)CCn1c(CN2CCN(C(=O)C3CC3)CC2)nc2c1c(=O)n(C)c(=O)n2C : -2.45

Data point: O=C(O)C1=CCCN(CCON=C(c2ccccc2)c2ccccc2)C1 ; ΔTm = -1.31

Data point: CCCCCCNC(=O)n1cc(Cl)c(=O)n(C(=O)OCC(C)C)c1=O ; ΔTm = -0.58

Data point: COc1ccc(-n2c(SCCCN3C(=O)c4cccc5cccc(c45)C3=O)nnc2-c2ccncc2)cc1 ; ΔTm = -1.38

Data point: CCC(NC(=O)C(CC(C)C)NC(=O)OCc1ccccc1)C(=O)C(=O)NCCCN1CCOCC1 (stereo not given) ; ΔTm = -0.93

Data point: CC(=O)N[C@@H](Cc1ccc(O)cc1)C(=O)N[C@H](C(=O)N[C@@H](C)C(=O)N[C@H](C=O)CC(=O)O)C(C)C ; ΔTm = -1.08

Data point: COC(=O)c1ccc(CN2CCC(O)(Cn3cnc4c(-c5ccc(CN)cc5)n(C)nc4c3=O)CC2)c(Cl)c1 ; ΔTm = -1.56

Data point: C[C@H](Nc1nc2c(cnn2C2CCCC2)c(=O)[nH]1)c1ccc(Cl)cc1 ; ΔTm = -6.85

* * *

# studySystem: Casein kinase I isoform delta (Homo sapiens)
# assaySetup: Compound concentration 20.0 uM
# Description: Thermal Shift Assay. Domain: start/stop: M1-K294
valueType: ΔTm (°C)
Numbers only; they are read as °C.

Would you please look over these solved cases?
CC(C)c1c(-c2cnn(C(C)(C)C)c2)[nH]c2c(C#N)cnn2c1=O : -0.24
CC(=O)NCC(=O)N1CCC[C@@H]1B(O)O : -0.18
COc1ccc([C@@H]2CNC(=O)C2)cc1OC1CCCC1 : -0.19
CCOC(=O)NCCCC(=O)NCCc1ccccc1 : 0.24

Data point: CCC[C@H]1CNCc2c1[nH]c(=O)c(C#N)c2N1CCC2(CC1)CC2 ; ΔTm = 0.15

* * *

# studySystem: Tyrosine-protein kinase ABL1 (Homo sapiens) (UniProt P00519)
# Sequence (P00519 whole entry): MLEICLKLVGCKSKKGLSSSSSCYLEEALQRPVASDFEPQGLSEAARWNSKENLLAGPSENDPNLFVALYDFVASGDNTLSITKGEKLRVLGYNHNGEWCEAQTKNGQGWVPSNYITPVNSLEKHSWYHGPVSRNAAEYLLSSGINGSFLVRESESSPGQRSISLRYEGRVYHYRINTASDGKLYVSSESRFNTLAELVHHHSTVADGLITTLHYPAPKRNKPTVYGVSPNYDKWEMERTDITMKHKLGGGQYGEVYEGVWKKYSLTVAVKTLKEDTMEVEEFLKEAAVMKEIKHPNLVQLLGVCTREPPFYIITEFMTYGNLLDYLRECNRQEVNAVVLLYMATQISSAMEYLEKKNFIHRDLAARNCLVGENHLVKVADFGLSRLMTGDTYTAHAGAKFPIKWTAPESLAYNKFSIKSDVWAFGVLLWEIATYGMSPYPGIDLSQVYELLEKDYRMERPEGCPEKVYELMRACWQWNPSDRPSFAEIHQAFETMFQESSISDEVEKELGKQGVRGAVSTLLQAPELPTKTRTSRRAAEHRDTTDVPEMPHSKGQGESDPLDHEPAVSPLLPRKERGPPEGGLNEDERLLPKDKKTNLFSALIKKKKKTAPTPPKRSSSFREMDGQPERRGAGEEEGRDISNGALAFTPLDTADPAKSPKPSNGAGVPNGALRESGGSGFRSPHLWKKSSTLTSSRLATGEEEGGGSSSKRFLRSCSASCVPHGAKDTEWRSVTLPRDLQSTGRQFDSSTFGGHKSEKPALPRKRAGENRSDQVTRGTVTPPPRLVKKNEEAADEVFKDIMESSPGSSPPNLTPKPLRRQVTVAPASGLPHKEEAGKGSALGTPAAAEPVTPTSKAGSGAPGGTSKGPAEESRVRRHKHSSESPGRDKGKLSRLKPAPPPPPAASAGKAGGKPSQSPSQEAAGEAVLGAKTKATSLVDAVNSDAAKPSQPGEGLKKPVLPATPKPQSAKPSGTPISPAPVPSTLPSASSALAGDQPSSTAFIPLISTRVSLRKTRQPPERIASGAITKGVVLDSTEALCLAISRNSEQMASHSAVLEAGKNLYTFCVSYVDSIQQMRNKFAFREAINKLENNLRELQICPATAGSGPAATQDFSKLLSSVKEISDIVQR
# assaySetup: Compound concentration 20.0 uM
# Description: Thermal Shift Assay. Domain: start/stop: S229-K512
Non-standard residues stand in square brackets, D forms with d. Residues, ends and D or L forms follow the SMILES beside them. *: point of attachment. Tyr(3-Cl) = N[C@@H](Cc1ccc(O)c(Cl)c1)C(=O)O; Benzoyl(3,5-Cl2) = O=C(c1cc(Cl)cc(Cl)c1)*; Lys(Et2) = CCN(CC)CCCC[C@H](N)C(=O)O; Gly(cPent) = N[C@H](C(=O)O)C1CCCC1; NH(propargyl) = C#CCN*
Everything with ΔTm lower than 0.8 °C is class 0; everything else, including exactly 0.8 °C, is class 1.

For orientation, consider the following solved cases.
COc1cc(C(=O)N2C[C@H](N)CC[C@@H]2C)cc2nc(-c3cc4cccnc4n3CC3CC3)n(C)c12 : class 0
CC(C)C(=O)SCCCCCCC(=O)Nc1nc(-c2ccccc2)cs1 : class 0
COc1cc(-c2cn(C)c(=O)c3cnccc23)cc(OC)c1CN(C)C : class 0
C#CCNC(=O)[C@H](CO)NC(=O)[C@H](CCCCN(CC)CC)NC(=O)[C@@H](NC(=O)[C@@H](NC(=O)[C@H](Cc1ccc(O)c(Cl)c1)NC(=O)c1cc(Cl)cc(Cl)c1)C1CCCC1)[C@@H](C)CC ({Benzoyl(3,5-Cl2)}-[Tyr(3-Cl)][Gly(cPent)]I[Lys(Et2)]S-{NH(propargyl)}) : class 0
COc1ccccc1[C@H]1[C@H](C(=O)O)[C@H](c2ccccc2OC)[C@H]1C(=O)Oc1cccc2ccccc12 : class 0
N[C@@H](CC(=O)Nc1ccc(Oc2cc(F)c(F)cc2Br)cc1)C(=O)O : class 0

Given the entry Cc1ccc(C(=O)Nc2ccc(S(=O)(=O)O)c3cc(S(=O)(=O)O)cc(S(=O)(=O)O)c23)cc1NC(=O)c1cccc(NC(=O)Nc2cccc(C(=O)Nc3cc(C(=O)Nc4ccc(S(=O)(=O)O)c5cc(S(=O)(=O)O)cc(S(=O)(=O)O)c45)ccc3C)c2)c1 , answer whether its ΔTm meets or surpasses 0.8 °C.
class 1

Given the entry CCCCCCCCCCCCCCCCNNC(=O)c1cccs1 , answer whether its ΔTm meets or surpasses 0.8 °C.
class 0

Given the entry COc1ccc([C@@H]2CNC(=O)C2)cc1OC1CCCC1 , answer whether its ΔTm meets or surpasses 0.8 °C.
class 0

Given the entry C[C@H]1CCCN1Cc1nc2cc(NC(=O)c3ccc4c(cnn4C)c3)ccc2[nH]1 , answer whether its ΔTm meets or surpasses 0.8 °C.
class 1

Given the entry NC(=O)C1CN(CCCCC(c2ccc(F)cc2)c2ccc(F)cc2)CCN1CC(=O)Nc1c(Cl)cc(N)cc1Cl (stereo unspecified) , answer whether its ΔTm meets or surpasses 0.8 °C.
class 0

Given the entry CCCSc1nc(N[C@@H]2C[C@H]2c2ccc(F)c(F)c2)c2nnn([C@@H]3C[C@H](OCCO)[C@@H](O)[C@H]3O)c2n1 , answer whether its ΔTm meets or surpasses 0.8 °C.
class 1
